Source listed as patent US20180305450A1.

Task for the reader: assign each of the following binders its reported IC50.
- SUBJECT_OF_TEST: T1, recombinant biotinylated human PAR2 extracellular domain (residues 1-75), N-terminal AviTag, C-terminal Flag … (human, UniProt P55085 26-75, biotin on the AviTag (enzymatic biotinylation))
- T1 construct: also called Bio-human-PAR2 ECD; human PAR2 ECD; not shown: N-terminal AviTag (Avidity LLC); C-terminal Flag and poly Histidine tags
- ASSAY_INFO: HTRF competition with Dylight650-Par0067 IgG, pH 6.0, IgG
Provide only the numeric value, understood in nM.

Provide only the value of recorded IC50 for PaB670142 IgG (antibody, V domains shown, IgG1-TM (L234F, L235E, P331S), human lambda light chain) VH: EVQLLESGGGLVQPGGSLRLSCAASGFTFSSYAMNWVRQAPGKGLEWVSTISYSGSLISYADSVKGRFTISRDNSKNTLYLQMNSLRAEDTAVYYCARIHHDPMDVWGQGTLVTVSS VL: SIELTQPPSVSVSPGQTASITCSGDNLGKKYVQWYQQKPGQSPVLVIYDDSNRPSGIPERFSGSNSGNTATLTISGTQAMDEADYYCQTWDGNPTHGETNVFGGGTKLTVL
67.1

Provide only the value of recorded IC50 for PaB670160 IgG (antibody, V domains shown, IgG1-TM (L234F, L235E, P331S), human lambda light chain) VH: EVQLLESGGGLVQPGGSLRLSCAASGFTFSSYAMNWVRQAPGKGLEWVSTISYSGSLISYADSVKGRFTISRDNSKNTLYLQMNSLRAEDTAVYYCARINHDPMDVWGQGTLVTVSS VL: SIELTQPPSVSVSPGQTASITCSGDNLGKKYVQWYQQKPGQSPVLVIYDDSNRPSGIPERFSGSNSGNTATLTISGTQAMDEADYYCHTWDGHHTTGETNHFGGGTKLTVL
634

Provide only the value of recorded IC50 for PaB670141 IgG (antibody, V domains shown, IgG1-TM (L234F, L235E, P331S), human lambda light chain) VH: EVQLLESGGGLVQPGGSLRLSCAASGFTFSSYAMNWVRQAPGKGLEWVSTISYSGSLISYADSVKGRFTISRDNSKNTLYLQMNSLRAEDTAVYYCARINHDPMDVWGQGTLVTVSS VL: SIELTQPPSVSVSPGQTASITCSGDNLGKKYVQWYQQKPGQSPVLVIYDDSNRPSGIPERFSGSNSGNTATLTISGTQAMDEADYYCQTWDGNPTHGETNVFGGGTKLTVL
13.9
